Ref: the supplement of paper PMC8497498

Reported EC50 schizont net growth area values follow for various compounds
Test system: Plasmodium vivax liver stage (primary human hepatocyte culture)
Conditions: P. vivax isolate: Pv914; hepatocyte lot: BGW; assay mode: Prophylactic, 6-day
Numbers only; they are read as nM.

- COMPOUND: "O[C@H](c1cc(C(F)(F)F)nc2c(C(F)(F)F)cccc12)[C@@H]1CCCCN1 [(+)-Mefloquine]"
  UNITS_OF_MEASURE: "nM"
  OBSERVED_MEASUREMENT: 5730

Tested system Plasmodium vivax liver stage (primary human hepatocyte culture); EC50 schizont net growth area recorded for Cc1cc(Nc2ccc(C(F)(F)F)nc2)n2nc(C(C)(F)F)nc2n1 was 325
